# Test target: T1, purified EGFR (Sigma) (human, UniProt P00533 25-1210, limits assumed)
# T1 construct: native receptor purified from A431 cells; also called solid phase coated EGFR
For each record, write down the corresponding koff.
Answers are plain numbers, in s⁻¹.

Example binders with recorded koff:
binder="PMP38G7 (VHH, also called EGR PMP38G7) VHH: EVQLVESGGGLVQAGGSLRLSCAASGRTFSSYVMGWFRQATGKEREFVATIAWDSGSTYYADSVKGRFTISRDNAKNTVHLQMNSLKPEDTAVYYCAASYNVYYNNYYYPISRDEYDYWGQGTQVTVSS" measured_parameter=koff measured_value=0.00017
binder="PMP7A5 (VHH) VHH: EVQLVESGGGLVQAGGSLRLSCAASDRTFSSNNMGWFRQAPGKEREFVAAIGWGGLETHYSDSVKGRFTISRDNAKNTVYLQMNSLKPEDTARYYCAVSSTRTVIYTLPRMYNYWGQGTQVTVSS" measured_parameter=koff measured_value=0.0015
binder="27-1-H7 (VHH) VHH: EVQLVESGGGLVQAGGSLRLSCAASGRGAWAWFRQAPGKEREFVGGLSWSADSTYYADSVKGRFTISRDNAKNTVFLQMTNLKADDTAVYYCAAHRRPFASVFTTTRMYDYWGPGTQVTVSS" measured_parameter=koff measured_value=0.0031
binder="27-10-E8 (VHH, anti-EGFR Nanobody; tested as periplasmic extract or IMAC purified soluble Nanobody, tag not described; also called EGR 27-10-E8) VHH: EVQLVESGGGLVQAGGSLRLSCAASGRTFSTYTMAWFRQAPGKEREFVQGISRSDGGTYDADSVKGRFTISRDNAKNTVYLQMNSLKPEDTAVYFCAAASVKLVYVNPNRYSYWGQGTQVTVSS" measured_parameter=koff measured_value=0.0017

Now consider a different binder.
Enquiry: Fill in: koff of PMP7E12 (VHH) VHH: EVQLVESGGGLVQAGGSLRLSCTASGRTFENNAMAWFRQAAGKEREFVAGFSGSGGATYYAHSVEGRFTISRDNAKNTVDLQMNSLSLEDTAVYLCAARRKSGEVVFTIPARYDYWGQGTQVTVSS is ___
Return: 0.0015
